Data credit: ChEMBL document CHEMBL1155439

molecular target: UniProt:Q8BLA8; assay: Agonist activity at mouse TRPA1 channel expressed in CHO cells assessed as increase in intracellular calcium influx; assay type: functional, cell-based
Sequence (Q8BLA8 whole entry): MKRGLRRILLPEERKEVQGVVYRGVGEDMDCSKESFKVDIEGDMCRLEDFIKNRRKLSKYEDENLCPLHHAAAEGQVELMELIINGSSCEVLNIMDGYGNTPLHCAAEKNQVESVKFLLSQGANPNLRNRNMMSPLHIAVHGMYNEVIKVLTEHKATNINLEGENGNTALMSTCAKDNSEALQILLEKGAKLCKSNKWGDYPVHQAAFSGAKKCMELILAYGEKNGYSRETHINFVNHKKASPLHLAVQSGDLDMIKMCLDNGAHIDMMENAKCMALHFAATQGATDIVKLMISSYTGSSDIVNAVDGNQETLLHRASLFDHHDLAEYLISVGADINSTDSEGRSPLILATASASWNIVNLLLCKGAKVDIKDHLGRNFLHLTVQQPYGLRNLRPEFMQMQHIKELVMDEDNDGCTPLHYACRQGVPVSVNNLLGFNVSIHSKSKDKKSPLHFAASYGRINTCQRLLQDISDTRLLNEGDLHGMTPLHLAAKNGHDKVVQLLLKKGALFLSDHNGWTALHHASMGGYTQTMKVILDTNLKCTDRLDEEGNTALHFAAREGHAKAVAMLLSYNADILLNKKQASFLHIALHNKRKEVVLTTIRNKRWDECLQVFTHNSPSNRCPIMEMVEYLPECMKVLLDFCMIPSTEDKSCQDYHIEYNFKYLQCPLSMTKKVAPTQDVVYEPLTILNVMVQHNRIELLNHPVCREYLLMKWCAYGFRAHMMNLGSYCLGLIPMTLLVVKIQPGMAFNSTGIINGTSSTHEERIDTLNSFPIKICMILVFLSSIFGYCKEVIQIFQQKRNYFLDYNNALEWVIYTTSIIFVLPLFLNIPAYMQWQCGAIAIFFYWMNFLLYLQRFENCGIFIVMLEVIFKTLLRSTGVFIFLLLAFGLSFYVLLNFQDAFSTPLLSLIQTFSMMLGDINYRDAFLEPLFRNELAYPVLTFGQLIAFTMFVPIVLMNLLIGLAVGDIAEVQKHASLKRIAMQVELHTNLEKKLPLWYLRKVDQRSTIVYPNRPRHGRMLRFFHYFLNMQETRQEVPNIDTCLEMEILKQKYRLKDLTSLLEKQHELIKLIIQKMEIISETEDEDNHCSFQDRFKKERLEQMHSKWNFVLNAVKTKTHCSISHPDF
observable: pEC50
Answers are plain numbers, as −log10 of the molar value.

Please report the recorded pEC50 for COCCOC(=O)C1=C(C)NC(C)=C(C(=O)OC(C)C)C1c1cccc([N+](=O)[O-])c1 (stereo not drawn) [NIMODIPINE] .
6.10

Please report the recorded pEC50 for CO/C(O)=C1\C(C)=NC(C)=C([N+](=O)[O-])[C@@H]1c1ccccc1C(F)(F)F .
4.68

Next:
Please report the recorded pEC50 for CO/C(O)=C1\C(C)=NC(C)=C([N+](=O)[O-])[C@H]1c1ccccc1C(F)(F)F .
4.38
